- TARGET_OR_TEST_SYSTEM: RET(KD: 658-1114 G810R) (Homo sapiens, UniProt P07949, G810R)
- Construct: 658-1114; expressed in transfected cells; host or cells: 293T.165 (293T cells, generated in-house)
- TEST_PROTOCOL: HiBiT-Degradation, RET G810R degradation assay (Nano-Glo HiBiT Lytic), 293T.165 cells
- Assay type: cell-based
- TEST_CONDITIONS: 6.0 hours, % remaining protein, read-out: 293T.165 RET(KD: 658-1114 G810R) 6.0 hours (Emax)
Measured Emax of individual entries

MOLECULE	Emax
N#Cc1cnn2cc(-c3cnn([C@H]4CC[C@@H](N5CCN(c6ccc(N[C@@H]7CCC(=O)NC7=O)cc6F)CC5)CC4)c3)nc(-c3ccc(N4CC5CC(C4)N5C(=O)c4c(F)cccc4F)nc3)c12 (single isomer, unassigned)	< 30%
CCC1(C(=O)NC(C)C)CCN(c2ncc(-c3nc(-c4cnn(C5CCN(C(=O)CC6(O)CCN(c7ccc(NC8CCC(=O)NC8=O)cc7Cl)CC6)CC5)c4)cn4ncc(C#N)c34)cc2F)CC1 (stereo not shown)	< 50%
CCC1(C(=O)NC2CCC2)CCN(c2ccc(-c3nc(-c4cnn([C@H]5CC[C@H](N6CCC(c7ccc8c(c7)CCN8[C@@H]7CCC(=O)NC7=O)CC6)CC5)c4)cn4ncc(C#N)c34)cn2)CC1 (single isomer, unassigned)	< 30%
Cn1nc(N2CCC(=O)NC2=O)c2cc(F)c(N3CCN([C@H]4CC[C@@H](n5cc(-c6cn7ncc(C#N)c7c(-c7ccc(N8C[C@H]9COC[C@@H](C8)N9Cc8ccc(=O)[nH]c8)nc7)n6)cn5)CC4)CC3)cc21 (single isomer, unassigned)	< 30%

====

- TARGET_OR_TEST_SYSTEM: RET(KD: 658-1114 G810R) (Homo sapiens, UniProt P07949, G810R)
- Construct: 658-1114; expressed in transfected cells; host or cells: 293T.165 (293T cells, generated in-house)
- Sequence (P07949 658-1114 G810R): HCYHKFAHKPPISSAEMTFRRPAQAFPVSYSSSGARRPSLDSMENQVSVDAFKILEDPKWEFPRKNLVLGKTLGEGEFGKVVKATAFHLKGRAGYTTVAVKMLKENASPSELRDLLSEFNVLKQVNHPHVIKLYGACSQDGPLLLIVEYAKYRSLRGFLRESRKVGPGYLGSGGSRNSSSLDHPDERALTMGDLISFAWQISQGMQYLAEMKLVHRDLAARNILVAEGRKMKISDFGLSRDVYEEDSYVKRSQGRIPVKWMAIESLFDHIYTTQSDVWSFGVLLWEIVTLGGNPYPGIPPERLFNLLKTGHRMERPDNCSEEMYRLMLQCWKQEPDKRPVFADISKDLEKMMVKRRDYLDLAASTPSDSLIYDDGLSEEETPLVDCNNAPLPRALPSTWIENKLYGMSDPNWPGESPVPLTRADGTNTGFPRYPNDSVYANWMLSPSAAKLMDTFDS
- TEST_PROTOCOL: HiBiT-Degradation, RET G810R degradation assay (Nano-Glo HiBiT Lytic), 293T.165 cells
- Assay type: cell-based
- TEST_CONDITIONS: HiBiT-Degradation
PROPERTY_LABEL: 293T.165 RET(KD: 658-1114 G810R) 6.0 hours (Emax)

COMPOUND	VALUE_REPORTED
CC(=O)N1CCN(c2ccc(-c3nc(-c4ccc(N5CCN(C(=O)CN6CCC(c7ccc(NC8CCC(=O)NC8=O)cc7)CC6)CC5)cc4)cn4ncc(C#N)c34)cn2)CC1 (centres unmarked) [Compound 27]	++++ (< 30% = ++++)
N#Cc1cnn2cc(-c3cnn([C@H]4CC[C@H](CCN5CCC(c6ccc(NC7CCC(=O)NC7=O)cc6F)CC5)CC4)c3)nc(-c3ccc(N4CCN(C(=O)Cc5ccc(F)cn5)CC4)nc3)c12 (some centres unmarked) [Compound 60]	++++ (< 30% = ++++)
CCC1(C(=O)NC(C)C)CCN(c2ccc(-c3cc(-c4cnn(C5CCN(C(=O)CN6CCN(c7ccc(NC8CCC(=O)NC8=O)cc7F)CC6)CC5)c4)cn4ncc(C#N)c34)cn2)CC1 (centres unmarked) [Compound 66]	++++ (< 30% = ++++)
CC(C)NC(=O)C1(C)CCN(c2ccc(-c3cc(-c4cnn([C@H]5CC[C@H](CCN6CCC(c7ccc(NC8CCC(=O)NC8=O)cc7F)CC6)CC5)c4)cn4ncc(C#N)c34)cn2)CC1 (some centres unmarked) [Compound 34]	++++ (< 30% = ++++)
